Test system: Plasmodium falciparum
Experimental details: GSK_TCMDC: Inhibition of Plasmodium falciparum 3D7 in whole erythrocytes, using parasite LDH activity as an index of growth.
Type: functional, organism-based
Applied conditions: Plasmodium falciparum, 3D7
XC50 for assorted compounds
Write the number in nM without appending the unit.

Exam item: Name the recorded XC50 for "COc1cc2c(cc1OC)CN(CCCCc1ccc(NC(=O)c3cc(Cl)cc(Cl)c3)cc1)CC2" .
Marked response: 1200

Continuing:
Exam item: Name the recorded XC50 for "Cc1cnc(NCC2CCCCC2)nc1N[C@@H](CO)C(=O)Nc1ccccc1" .
Marked response: 1100

Exam item: Same for "CCCCOC(=O)NCCCC[C@H](NC(=O)OC(C)(C)C)C(=O)N[C@H](C(=O)OC(c1ccccc1)c1ccccc1)[C@H]1O[C@@H](n2ccc(=O)[nH]c2=O)[C@@H]2OC(C)(C)O[C@@H]21"
Marked response: 1090

Exam item: Same for "CNC(=S)NCc1cnc2ccccn12"
Marked response: 195

Exam item: Same for COc1cc(Nc2nccc(N3CCC(NC(=O)Nc4ccc5c(c4)OCO5)C3)n2)cc(OC)c1OC (stereo not drawn)
Marked response: 761

Exam item: Same for "CCCC1(NC[C@@H](O)[C@H](Cc2ccccc2)NC(=O)c2cc(NCC)cc(N3CCCCS3(=O)=O)c2)CCC1"
Marked response: 720

Exam item: Same for "COc1cc(OC)c(NC(=O)COc2ccc(C)cc2)cc1Cl"
Marked response: 688

Exam item: Same for "CC(C)N(CC(=O)c1ccc(O)c(C(=O)O)c1)Cc1ccccc1"
Marked response: 187

Exam item: Same for Cc1nc(C)c(C2CCC(c3ccc(Cl)cc3)CC2)c(O)c1Cl (stereo not drawn)
Marked response: 51.8

Exam item: Same for "COc1cc(CCCOc2c(N)nc(N)nc2N)cc(OC)c1OC"
Marked response: 1220

Exam item: Same for "CCCOc1ccc(CNCCCCCCNCc2ccc(OCCC)c3ccccc23)c2ccccc12"
Marked response: 410

Exam item: Same for "FC(F)(F)c1cccc(Nc2nc(-n3ccnc3)nc(-n3ccnc3)n2)c1"
Marked response: 724

---

Tested on: Plasmodium falciparum
Experimental details: GSK_TCMDC: Inhibition of Plasmodium falciparum 3D7 in whole erythrocytes, using parasite LDH activity as an index of growth.
Type: functional, organism-based
Applied conditions: Plasmodium falciparum, 3D7
Kindly apply the following: 1.0 if XC50 is less than 0.6 µM, 0.0 in every other case.

Completed entries (count: 3):
Exam item: Please determine if CCCCC(O)c1cc(O)c2c(c1)OC(C)(C)CC2C1=CCN(Cc2ccc3ccccc3c2)CC1 (stereo not given) is below 0.6 µM in terms of XC50.
Marked response: 0.0

Exam item: Same for "COc1ccc(C(=O)NCc2ccccc2-c2ccc(C(C)(C)C)cc2)cc1O"
Marked response: 1.0

Exam item: Same for "O=C(NCc1cccc(F)c1)Nc1ccc(-c2cccc(-c3nc4ccccc4[nH]3)c2)cc1"
Marked response: 0.0

Continuing:
Exam item: Please determine if "COc1ccc(CNC2Cc3ccccc3C2)cc1-c1ccc(S(=O)(=O)NCCN2CCCC2)cc1" is below 0.6 µM in terms of XC50.
Marked response: 1.0

Exam item: Same for CCC(C)OC(=O)C1=C(C)NC2=C(C(=O)CC(c3ccc(OC)c(OC)c3)C2)C1c1ccc(C)o1 (stereo not given)
Marked response: 0.0
